Origin of measurements: PubChem BioAssay (NCI)

- Tested on: CCRF-CEM leukemia
- experimentalDetails: NCI tumour cell line growth inhibition, 48 h
quantityName: GI50

INSERT INTO results (molecule, testvalue) VALUES
  ('COc1ccc(Cl)cc1NC(=O)C(Br)C(Br)C(=O)O (stereo not given)', '2900 nM'),
  ('O=C(Nc1ccccc1O)c1ccc(Oc2cccc(C(=O)Nc3ccccc3O)c2)cc1', '409 nM'),
  ('c1ccc(-n2nnnc2-c2cccc3ccccc23)cc1', '447 nM'),
  ('O=C(Cc1cccc(OC(F)(F)F)c1)Nc1ccc(CCCCc2nnc(NC(=O)Cc3ccccn3)s2)nn1', '32100 nM'),
  ('CCN(CCCl)CCCNc1c2ccccc2nc2ccc(OC)cc12', '67600 nM'),
  ('CC(=O)OCC1OC(OC2CC3C(C)(C)C(O)CC[C@]3(C)C3CCC45CC4(CC[C@H]5C(C)CC(O)C4OC4(C)C)[C@]23C)C(O)C(O)C1O (stereo not given in full)', '2560 nM'),
  ('N#CC1=C(N)NC(=O)NC12Nc1ccccc1S2 (stereo not given)', '> 42000 nM'),
  ('C=CCC(N[C@H](CO)c1ccccc1)c1cn(C(=O)OCC)c2ccccc12 (stereo not given in full)', '44000 nM'),
  ('COc1cc2c[n+](C)c3c4ccccc4ccc3c2cc1OC (tested in a mixture with another compound)', '2080 nM'),
  ('O=c1[nH]cnc2[nH]ncc12', '360000 nM');

* * *

- Test system: M14 melanoma
- experimentalDetails: NCI tumour cell line growth inhibition, 48 h
Entries and their measured TGI follow.
quantityName: TGI (µM)

INSERT INTO measurements (compound, unittext, resultmodifier, testvalue) VALUES
  ('C=CCC(N[C@H](CO)c1ccccc1)c1cn(C(=O)OCC)c2ccccc12 (stereo not given in full)', 'µM', '=', 28.2),
  ('O=C(N/N=C/c1ccc([N+](=O)[O-])cc1)c1ccc2nc(-c3ccc(Cl)cc3)[nH]c2c1', 'µM', '=', 9.13),
  ('CCOC(=O)C(=Cc1ccc(C(=O)OC)cc1)C(=O)OCC', 'µM', '=', 3.36),
  ('Cc1c(C)[n+](=O)c(C)c(C)n1[O-]', 'µM', '>', 100),
  ('COc1ccc2c(c1)C(=O)/C(=C/c1ncc([N+](=O)[O-])n1C)O2', 'µM', '=', 0.737),
  ('O=C(CC(=O)N1N=C(N2c3ccccc3Sc3ccccc32)CC1c1ccccc1)Nc1ccc(Cl)cc1 (stereo not given)', 'µM', '>', 100),
  ('COC(OC)C1OC(CO)C(n2ccc(N)nc2=O)C1O (stereo not given)', 'µM', '>', 100),
  ('Fc1ccc(N=NN2CCCC2)cc1', 'µM', '>', 100),
  ('O=[N+]([O-])c1ccc(N=Nc2c(O)c(S(=O)(=O)O)cc3cc(S(=O)(=O)O)ccc23)cc1', 'µM', '>', 100),
  ('C#Cc1c(C(N)=O)ncn1C1OC(COP(=O)(OCc2ccc([N+](=O)[O-])o2)N(C)CCCCCl)C(O)C1O (stereo not given)', 'µM', '>', 100);

* * *

- Test system: OVCAR-4 ovarian
- experimentalDetails: NCI tumour cell line growth inhibition, 48 h
quantityName: TGI

INSERT INTO assay_data (compound, experimentaltarget, quantityname, testvalue) VALUES
  ('Cc1[nH]c2ccccc2c1C=Nc1ccc(N=Cc2c(C)[nH]c3ccccc23)cc1', 'OVCAR-4 ovarian', 'TGI', '> 100 µM'),
  ('COc1ccc2c(c1)n([O-])c(C#N)c(N1CCN(c3ccc([N+](=O)[O-])cc3)CC1)[n+]2=O', 'OVCAR-4 ovarian', 'TGI', '> 100 µM'),
  ('CN(C)C(=O)c1cc2cnc(Nc3ccc(-c4csc5c(=O)cc(N6CCOCC6)oc45)cc3)nc2n1C1CCCC1', 'OVCAR-4 ovarian', 'TGI', '> 53.7 µM'),
  ('CN(C)CCSC(=Nc1ccccc1)N1CCCCC1', 'OVCAR-4 ovarian', 'TGI', '40.2 µM'),
  ('Cc1c2c[n+](C(C)C)ccc2c(C)c2c1[nH]c1ccccc12', 'OVCAR-4 ovarian', 'TGI', '15.4 µM'),
  ('CC(=O)O[C@]12CCCC1C1(O)C(O)CCCC12 (stereo not given in full)', 'OVCAR-4 ovarian', 'TGI', '> 100 µM'),
  ('O=C1C(=O)N(c2ccc(Cl)cc2Cl)C(=O)C(=O)C1c1nc2ccccc2o1', 'OVCAR-4 ovarian', 'TGI', '> 100 µM'),
  ('S=C1Nc2ccc(Cl)cc2C2(c3ccccc3)N3CCN=C3NN12 (stereo not given)', 'OVCAR-4 ovarian', 'TGI', '> 100 µM'),
  ('COc1cccc(Cc2c3cc(OC)ccc3cc[n+]2C)c1', 'OVCAR-4 ovarian', 'TGI', '> 100 µM'),
  ('O=c1[nH]c(=O)n(Cc2ccccc2CO)cc1Sc1ccccc1', 'OVCAR-4 ovarian', 'TGI', '> 100 µM');

* * *

- Test system: A498 renal
- experimentalDetails: NCI tumour cell line growth inhibition, 48 h
Entries and their measured GI50 follow.
quantityName: GI50

INSERT INTO assay_data (structureassmiles, experimentaltarget, testvalue) VALUES
  ('C=CC(=O)N[C@H]1CCOC[C@H]1Nc1ncc2cc(-c3c(Cl)c(OC)cc(OC)c3Cl)ccc2n1', 'A498 renal', '3.36 µM'),
  ('Cc1c2c[n+](C(C)C)ccc2c(C)c2c1[nH]c1ccccc12', 'A498 renal', '1.94 µM'),
  ('C=CCC1(O)c2cccc(NCCO)c2C(=O)c2c(NCCO)cccc21', 'A498 renal', '> 100 µM'),
  ('COc1ccc2c(c1)C(=O)/C(=C/c1ncc([N+](=O)[O-])n1C)O2', 'A498 renal', '1.42 µM'),
  ('COc1ccc(-c2ccc(-c3ccc(-c4ccc(C(=N)N)cc4)s3)s2)cc1OC', 'A498 renal', '11 µM'),
  ('COc1ccccc1C#Cc1ccccc1C#CCCCCCC#Cc1ccccc1C#Cc1ccccc1OC', 'A498 renal', '> 100 µM'),
  ('N#CCc1ncc(-c2ccc(C(F)(F)F)cc2)c(NC2CCCCCC2)n1', 'A498 renal', '> 10 µM'),
  ('Cc1cc(Cc2cc(C)cc(C(C)(C)C)c2O)c(O)c(C(C)(C)C)c1', 'A498 renal', '12.9 µM'),
  ('O=c1[nH]cnc2[nH]ncc12', 'A498 renal', '532 µM'),
  ('CC(=O)O/N=C1/C(c2c(O)[nH]c3cc(Br)ccc23)=Nc2ccccc21', 'A498 renal', '0.429 µM');

* * *

- System: OVCAR-5 ovarian
- experimentalDetails: NCI tumour cell line growth inhibition, 48 h
Entries and their measured GI50 follow.
quantityName: GI50

INSERT INTO results (compound, experimentaltarget, testvalue) VALUES
  ('C=CCC1(O)c2cccc(NCCO)c2C(=O)c2c(NCCO)cccc21', 'OVCAR-5 ovarian', '> 100 µM'),
  ('C=C(c1ccc(C(=O)N(C)c2ccccc2N)cc1)C(C)N1C(=O)[C@H]2CCCN2C(=O)c2ccccc21 (some centres undefined)', 'OVCAR-5 ovarian', '11.5 µM'),
  ('Cc1cc(C)c(O)c(CN(C)Cc2cc(Cl)cc(Cl)c2O)c1', 'OVCAR-5 ovarian', '6.12 µM'),
  ('C=C1C(=O)O[C@H]2[C@H]1CC/C(COC(=O)CSCC(=O)OC/C1=C/CC[C@@]3(C)O[C@H]3[C@H]3OC(=O)C(=C)[C@@H]3CC1)=C\CC[C@@]1(C)O[C@@H]21', 'OVCAR-5 ovarian', '1.85 µM'),
  ('CC(=O)OCC1OC(OC2CC3C(C)(C)C(O)CC[C@]3(C)C3CCC45CC4(CC[C@H]5C(C)CC(O)C4OC4(C)C)[C@]23C)C(O)C(O)C1O (some centres undefined)', 'OVCAR-5 ovarian', '15.8 µM'),
  ('CCCCCCCCCCCCSC(=N)N', 'OVCAR-5 ovarian', '12.4 µM'),
  ('COc1ccc(-n2c3c(c4c(CN5CCOCC5)c(O)ccc42)CCc2ccccc2C3=O)cc1', 'OVCAR-5 ovarian', '34.8 µM'),
  ('C=CCC(N[C@H](CO)c1ccccc1)c1cn(C(=O)OCC)c2ccccc12 (some centres undefined)', 'OVCAR-5 ovarian', '16.3 µM'),
  ('O=C(N/N=C/c1ccccc1O)C(=O)Nc1ccc(F)cc1', 'OVCAR-5 ovarian', '6.69 µM');

* * *

- Test system: M14 melanoma
- experimentalDetails: NCI tumour cell line growth inhibition, 48 h; in the data active = GI50 below about 0.43 µM; inactive = the rest
Possible outcomes: true for active, false for inactive

INSERT INTO measurements (molecule, experimentaltarget, cat) VALUES
  ('CCN(CCCl)CCCNc1c2ccccc2nc2ccc(OC)cc12', 'M14 melanoma', 'false'),
  ('N#CCc1ncc(-c2ccc(C(F)(F)F)cc2)c(NC2CCCCCC2)n1', 'M14 melanoma', 'false'),
  ('Cn1cc(-c2cnc3ccc4ccc(CS(=O)(=O)NCc5ccccn5)cc4c(=O)c3c2)cn1', 'M14 melanoma', 'false'),
  ('Cc1ccc(-c2cc(C3=CC(=O)C=CC3=O)n(-c3ccc(S(N)(=O)=O)cc3)n2)cc1', 'M14 melanoma', 'false'),
  ('COc1ccc(C(=O)c2cc3c(OC)c(OC)c(OC)cc3[nH]2)cc1', 'M14 melanoma', 'false'),
  ('COc1ccc2c(c1)C(=O)/C(=C/c1ncc([N+](=O)[O-])n1C)O2', 'M14 melanoma', 'true'),
  ('C#CC(F)(F)[C@]1(O)CC[C@H]2[C@@H]3CCC4=CC(=O)CCC4=C3[C@@H](c3ccc(C(C)=O)cc3)C[C@@]21C', 'M14 melanoma', 'false'),
  ('S=C1Nc2ccc(Cl)cc2C2(c3ccccc3)N3CCN=C3NN12 (configuration not stated)', 'M14 melanoma', 'false'),
  ('COC(=O)[C@]12CC[C@@H](C)[C@H](C)[C@@H]1C1=CC[C@@H]3[C@@]4(C)C=C(O)C(=O)[C@@]5(C)COC(=C54)C[C@@]3(C)[C@]1(C)CC2', 'M14 melanoma', 'false'),
  ('N#CC1=C(N)NC(=O)NC12Nc1ccccc1S2 (configuration not stated)', 'M14 melanoma', 'false'),
  ('C=CCC(N[C@H](CO)c1ccccc1)c1cn(C(=O)OCC)c2ccccc12 (some centres not stated)', 'M14 melanoma', 'false'),
  ('c1ccc(-n2nnnc2-c2cccc3ccccc23)cc1', 'M14 melanoma', 'true'),
  ('O=C(N/N=C/c1ccc([N+](=O)[O-])cc1)c1ccc2nc(-c3ccc(Cl)cc3)[nH]c2c1', 'M14 melanoma', 'false'),
  ('Cc1c(C)[n+](=O)c(C)c(C)n1[O-]', 'M14 melanoma', 'false'),
  ('CO[C@@H]1/C=C(C)/C=C/[C@@H](C)/C=C(\C)C(=O)OC(/C(C)=C/C=C(\C)CNC(=O)[C@H](CO)NC=O)[C@@H](C)/C=C/C=C/[C@H](OC)CC/C=C(C)/C=C/C1 (some centres not stated)', 'M14 melanoma', 'true'),
  ('COc1ccc2c(c1)C(c1ccccc1Cl)=Nc1c(n[nH]c1C)N2', 'M14 melanoma', 'false'),
  ('O=c1[nH]cnc2[nH]ncc12', 'M14 melanoma', 'false'),
  ('CCOC(=O)/C=C/C(C(=O)/C=C/c1ccc(O)c(OC)c1)=C(O)\C=C\c1ccc(O)c(OC)c1', 'M14 melanoma', 'false'),
  ('NC1=NC(c2ccc(Cl)cc2)C2=C(N1)/C(=C/c1ccc(Cl)cc1)CCC2 (configuration not stated)', 'M14 melanoma', 'false'),
  ('C=C(c1ccc(C(=O)N(C)c2ccccc2N)cc1)C(C)N1C(=O)[C@H]2CCCN2C(=O)c2ccccc21 (some centres not stated)', 'M14 melanoma', 'false'),
  ('O=Nc1ccc2ccccc2c1O', 'M14 melanoma', 'false'),
  ('N#C[S-].[Nd+3].c1ccc(-c2ccccn2)nc1.c1ccc(-c2ccccn2)nc1.c1ccc(-c2ccccn2)nc1', 'M14 melanoma', 'false');
